Reference source for all entries: patent US20110183954A1

- Target system: UniProt:O60674
- Sequence (O60674 808-1132 limits assumed): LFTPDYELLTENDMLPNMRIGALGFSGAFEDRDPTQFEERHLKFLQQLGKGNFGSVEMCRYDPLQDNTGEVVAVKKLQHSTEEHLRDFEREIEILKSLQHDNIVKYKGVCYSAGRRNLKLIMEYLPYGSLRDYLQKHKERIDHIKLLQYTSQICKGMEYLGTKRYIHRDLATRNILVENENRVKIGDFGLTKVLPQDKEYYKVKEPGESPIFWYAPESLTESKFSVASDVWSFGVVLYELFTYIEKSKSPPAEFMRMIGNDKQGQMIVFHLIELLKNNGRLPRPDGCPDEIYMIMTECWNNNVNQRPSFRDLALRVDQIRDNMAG
- Experimental protocol: Method 1 (JAK2): Amplified Luminescent Proximity Assay (Alphascreen)
- Type: biochemical
- Parameters: His6 (C); purchased Upstate Biotechnology; host or cells: baculovirus in Sf21 cells
- Cond: 150 pM JAK2 enzyme, 5 mM ATP, 60 minutes, room temperature, read-out: IC50 (JAK inhibitory activity, Method 1 (JAK2))
pIC50: −log10 of the molar value.
# pIC50 listing for each entry below
Readout type: pIC50

Molecule: C[C@H](Nc1nc(Nc2cn(C)cn2)nc(N2CCOCC2)n1)c1ncc(F)cc1F (single isomer, unassigned) [Example 10(b)]
Comparison operator: >
Value observed: 8.10
//
Molecule: CCn1cnc(Nc2nc(N[C@@H](C)c3ncc(F)cn3)nc(N3CCOCC3)n2)c1 [Example 35]
Comparison operator: =
Value observed: 7.64
//
Molecule: CC(C)n1cnc(Nc2nc(N[C@@H](C)c3ncc(F)cn3)nc(N3CCOCC3)n2)c1 [Example 17]
Comparison operator: =
Value observed: 5.54
//
Molecule: C[C@H](Nc1nc(Nc2ncc(C#N)s2)nc(N2CCOCC2)n1)c1ncc(F)cn1 [Example 7]
Comparison operator: =
Value observed: 5.50
//
Molecule: CC(Nc1nc(Nc2cn(C)cn2)nc(N2CCOCC2)n1)c1ncc(F)cc1F (racemic) [Example 10]
Comparison operator: =
Value observed: 8.40
//
Molecule: CCn1cnc(Nc2nc(N[C@@H](C)c3ncc(F)cc3F)nc(N3CCOCC3)n2)c1 [Example 31]
Comparison operator: =
Value observed: 6.63
//
Molecule: COC[C@H](Nc1nc(Nc2cn(C)cn2)nc(N2CCOC(C)C2)n1)c1ncc(F)cc1F (stereo partly drawn) [Example 2]
Comparison operator: =
Value observed: 7.96
//
Molecule: C[C@H](Nc1nc(Nc2cn(C)cn2)nc(N2CC(F)C2)n1)c1ncc(F)cc1F [Example 18]
Comparison operator: =
Value observed: 7.89
//
Molecule: C[C@H](Nc1nc(Nc2cn(CCc3ccccc3)cn2)nc(N2CCOCC2)n1)c1ncc(F)cn1 [Example 6]
Comparison operator: =
Value observed: 6.55
//
Molecule: COC[C@H](Nc1nc(Nc2cn(C)cn2)nc(N2C[C@@H](C)O[C@@H](C)C2)n1)c1ncc(F)cc1F [Example 1]
Comparison operator: =
Value observed: 7.74
//
Molecule: C[C@H](Nc1nc(Nc2cn(C)cn2)nc(N2CCOCC2)n1)c1ccc(Cl)cc1 [Example 29]
Comparison operator: =
Value observed: 8.40
//
Molecule: C[C@H](Nc1nc(Nc2cn(C)cn2)nc(N2CCC(F)CC2)n1)c1ncc(F)cc1F [Example 21]
Comparison operator: =
Value observed: 8.40
